- TARGET_DESC: human SCD1 (Homo sapiens)
- Construct: expressed in transfected cells; host or cells: yeast strain with OLE1 deleted, plasmid-borne human SCD1 (selected in SD-Ura)
- Sequence (O00767 whole entry): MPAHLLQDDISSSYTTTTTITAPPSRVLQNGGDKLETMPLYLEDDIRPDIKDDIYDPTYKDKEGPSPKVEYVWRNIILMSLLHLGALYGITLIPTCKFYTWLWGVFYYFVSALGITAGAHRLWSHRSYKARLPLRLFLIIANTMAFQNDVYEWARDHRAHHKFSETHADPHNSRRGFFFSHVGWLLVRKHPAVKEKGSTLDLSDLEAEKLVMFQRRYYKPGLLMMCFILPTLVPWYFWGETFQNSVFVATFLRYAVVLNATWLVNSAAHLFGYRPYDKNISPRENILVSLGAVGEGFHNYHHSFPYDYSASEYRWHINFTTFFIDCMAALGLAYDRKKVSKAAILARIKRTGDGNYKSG
- ASSAY_EXPLANATION: Growth inhibition of yeast strain expressing human SCD1 as sole desaturase (OLE1 deleted), OD600 readout
- Assay type: cell-based
- CONDITION: yeast strain expressing human SCD1 as sole desaturase; growth (OD600) after 40 h at 30° C.; read-out: SCD1 IC50
pIC50: −log10 of the molar value.
MEASURED_ATTRIBUTE: pIC50

{"COMPOUND": "CO[C@H]1C[C@@H](C(=O)Nc2ccc(Cc3cccc(F)c3)cn2)N(C)C1", "TARGET_DESC": "human SCD1 (Homo sapiens)", "LIMIT_SIGN": "<", "RECORDED_NUMBER": 4.35}
{"COMPOUND": "Cn1nc(C(=O)Nc2ccc(Cc3cccc(Cl)c3)cc2)ccc1=O", "TARGET_DESC": "human SCD1 (Homo sapiens)", "LIMIT_SIGN": "=", "RECORDED_NUMBER": 6.00}
{"COMPOUND": "O=C(Nc1ccc(Cc2cccc(F)c2)cn1)c1cc2ncnc(Cl)c2s1", "TARGET_DESC": "human SCD1 (Homo sapiens)", "LIMIT_SIGN": "<", "RECORDED_NUMBER": 4.35}
{"COMPOUND": "O=C(Nc1ccc(Cc2ccc(F)c(F)c2)cn1)c1ccncc1", "TARGET_DESC": "human SCD1 (Homo sapiens)", "LIMIT_SIGN": "=", "RECORDED_NUMBER": 6.77}
{"COMPOUND": "COc1cc(Cc2ccc(NC(=O)c3cnc(Cl)cn3)nc2)ccc1F", "TARGET_DESC": "human SCD1 (Homo sapiens)", "LIMIT_SIGN": "<", "RECORDED_NUMBER": 4.35}
{"COMPOUND": "Cn1ccc(C(=O)Nc2ccc(Cc3ccc(F)c(F)c3)cn2)n1 [Compound 371]", "TARGET_DESC": "human SCD1 (Homo sapiens)", "LIMIT_SIGN": "=", "RECORDED_NUMBER": 6.92}
{"COMPOUND": "Cn1cc(C(=O)Nc2ccc(Nc3cccc(F)c3)cn2)ccc1=O", "TARGET_DESC": "human SCD1 (Homo sapiens)", "LIMIT_SIGN": "<", "RECORDED_NUMBER": 4.35}
{"COMPOUND": "CC(O)C1CN(C(=O)Nc2ccc(Cc3cccc(Cl)c3)cn2)C1 (stereo not shown)", "TARGET_DESC": "human SCD1 (Homo sapiens)", "LIMIT_SIGN": "<", "RECORDED_NUMBER": 4.35}
{"COMPOUND": "CN1N=C(C(=O)Nc2ncc(Cc3cccc(Cl)c3)cn2)CCC1=O", "TARGET_DESC": "human SCD1 (Homo sapiens)", "LIMIT_SIGN": "<", "RECORDED_NUMBER": 4.35}
{"COMPOUND": "Cn1c(C(=O)Nc2ccc(Cc3cccc(F)c3)cn2)coc1=O", "TARGET_DESC": "human SCD1 (Homo sapiens)", "LIMIT_SIGN": "=", "RECORDED_NUMBER": 5.53}
{"COMPOUND": "Cn1cc(C(=O)Nc2ccc(Cc3cccc(F)c3)cn2)n(C)c1=O", "TARGET_DESC": "human SCD1 (Homo sapiens)", "LIMIT_SIGN": "=", "RECORDED_NUMBER": 7.04}
{"COMPOUND": "CN1N=C(C(=O)Nc2ccc(CC3CC3)cn2)CCC1=O", "TARGET_DESC": "human SCD1 (Homo sapiens)", "LIMIT_SIGN": "<", "RECORDED_NUMBER": 4.35}
{"COMPOUND": "CN1N=C(C(=O)Nc2ccc(Cc3ccc(Cl)c(Cl)c3)nn2)CCC1=O", "TARGET_DESC": "human SCD1 (Homo sapiens)", "LIMIT_SIGN": "=", "RECORDED_NUMBER": 5.36}
{"COMPOUND": "CCn1nc(C(=O)Nc2ccc(Cc3cccc(Cl)c3)nn2)ccc1=O", "TARGET_DESC": "human SCD1 (Homo sapiens)", "LIMIT_SIGN": "<", "RECORDED_NUMBER": 4.35}
{"COMPOUND": "CN1N=C(C(=O)Nc2ncc(Cc3cccc(F)c3)nn2)CCC1=O", "TARGET_DESC": "human SCD1 (Homo sapiens)", "LIMIT_SIGN": "<", "RECORDED_NUMBER": 4.35}
{"COMPOUND": "CN1N=C(C(=O)Nc2ncc(Cc3ccc(F)cc3)s2)CCC1=O", "TARGET_DESC": "human SCD1 (Homo sapiens)", "LIMIT_SIGN": "=", "RECORDED_NUMBER": 6.89}
{"COMPOUND": "O=C(Nc1ccc(Cc2cccc(Cl)c2)cn1)c1ccc(=O)n(C2CC2)n1", "TARGET_DESC": "human SCD1 (Homo sapiens)", "LIMIT_SIGN": "=", "RECORDED_NUMBER": 6.12}
{"COMPOUND": "CN(c1ccc(NC(=O)c2ccc(=O)n(C)n2)nc1)c1cccc(F)c1", "TARGET_DESC": "human SCD1 (Homo sapiens)", "LIMIT_SIGN": "<", "RECORDED_NUMBER": 4.35}
{"COMPOUND": "N#Cc1cc(C(=O)Nc2ccc(Cc3cc(F)cc(F)c3)cn2)cnc1C#N", "TARGET_DESC": "human SCD1 (Homo sapiens)", "LIMIT_SIGN": "=", "RECORDED_NUMBER": 5.36}
